System: transferrin receptor 1 (TFRC) mRNA
EXPERIMENT SUMMARY: TFRC gene expression by qRT-PCR in PC3 cells
Format: cell-based, human
TEST PARAMETERS: oligopeptide at 10 μM with 10 μM BIC
Please respond with reported TFRC Fold Change, Average for every item in the list.
Numbers only.

Some solved cases for reference:
SUBSTANCE	TFRC Fold Change, Average
LDEESGEP [FT-005, synthetic oligopeptide; -B / -E: tested with bicalutamide / enzalutamide]	0.6
REESGEP [FT-002, synthetic oligopeptide; -B / -E: tested with bicalutamide / enzalutamide]	0.7
REESGEL [FT-008]	0.9

Moving on to another substance below.
Query: Retrieve TFRC Fold Change, Average measured for PREESDKP [FT-007] and print it.
Reply: 0.7
